The measurements presented in this section are drawn from paper PMC7435673.

System: Human colon carcinoma cell line (RKO)
Experiment Summary: Cytotoxicity (antiproliferative) CCK-8 assay, RKO
Details: Homo sapiens, Colon carcinoma cell, 48 h, read-out: cytotoxicity value against human colon carcinoma cell line (RKO)
# IC50 annotations

C=C(Oc1ccccc1)C(N)P(=O)(c1ccccc1)c1ccccc1 (stereo not drawn) [Compound 11a] :: > 50 µM

GET /values?readout=IC50&item= O=P(c1ccccc1)(c1ccccc1)[C@@H]1N[C@]1(Sc1ccccc1)c1ccccc1 (relative stereo) [Compound 14c] 9.7 µM

GET /values?readout=IC50&item= C=C(Sc1ccccc1)C(N)P(=O)(c1ccccc1)c1ccccc1 (stereo not drawn) [Compound 15a] > 50 µM

GET /values?readout=IC50&item= C=C(Sc1ccc(F)cc1)C(N)P(=O)(c1ccccc1)c1ccccc1 (stereo not drawn) [Compound 15c] > 50 µM

GET /values?readout=IC50&item= COC(C)(OC)C(N)P(=O)(c1ccccc1)c1ccccc1 (stereo not drawn) [Compound 4a] > 50 µM

GET /values?readout=IC50&item= C=C(Sc1ccccc1)C(NS(=O)(=O)c1ccc(C)cc1)P(=O)(OCC)OCC (stereo not drawn) [Compound 16c] > 50 µM

----------
# IC50 at 48 h annotations
Experiment Summary: Cytotoxicity CCK-8 assay, MRC-5 (selectivity)
Details: human, MRC-5 non-malignant lung fibroblasts

Use these answered entries as a reference point.
COC(OC)(c1ccccc1)C(N)P(=O)(c1ccccc1)c1ccccc1 (centres unmarked) :: > 50 µM
C=C(Sc1ccccc1)C(N)P(=O)(c1ccccc1)c1ccccc1 (centres unmarked) [Compound 15a] :: 15.9 µM
C=C(Sc1ccc(OC)cc1)C(N)P(=O)(c1ccccc1)c1ccccc1 (centres unmarked) [Compound 15d] :: > 50 µM

GET /values?readout=IC50 at 48 h&item= CCOC(C)(OCC)C(N)P(=O)(c1ccccc1)c1ccccc1 (centres unmarked) > 50 µM

GET /values?readout=IC50 at 48 h&item= C=C(Oc1ccccc1)C(N)P(=O)(c1ccccc1)c1ccccc1 (centres unmarked) [Compound 11a] > 50 µM

----------
Experiment Summary: Cytotoxicity CCK-8 assay, MRC-5 (selectivity)
Details: human, MRC-5 non-malignant lung fibroblasts
# IC50 at 48 h annotations

Use these answered entries as a reference point.
C=C(OCC(F)(F)F)C(N)P(=O)(c1ccccc1)c1ccccc1 (stereo not drawn) :: > 50 µM
C=C(Sc1ccccc1)C(NS(=O)(=O)c1ccc(C)cc1)P(=O)(c1ccccc1)c1ccccc1 (stereo not drawn) [Compound 16a] :: > 50 µM

Could you now consider this next molecule?
GET /values?readout=IC50 at 48 h&item= C=C(Sc1ccc(C)cc1)C(N)P(=O)(c1ccccc1)c1ccccc1 (stereo not drawn) [Compound 15b] 14.9 µM

----------
# melting point annotations

Use these answered entries as a reference point.
CCOC(C)(OCC)C(N)P(=O)(c1ccccc1)c1ccccc1 (centres unmarked) :: 126 to 128 °C
C=C(Sc1ccc(F)cc1)C(NS(=O)(=O)c1ccc(C)cc1)P(=O)(OCC)OCC (centres unmarked) [Compound 16d] :: 117 to 119 °C
C=C(Sc1ccccc1)C(NS(=O)(=O)c1ccc(C)cc1)P(=O)(c1ccccc1)c1ccccc1 (centres unmarked) [Compound 16a] :: 199 to 201 °C
C=C(Sc1ccc(C)cc1)C(NS(=O)(=O)c1ccc(C)cc1)P(=O)(c1ccccc1)c1ccccc1 (centres unmarked) [Compound 16b] :: 180 to 182 °C
COC(C)(OC)C(N)P(=O)(c1ccccc1)c1ccccc1 (centres unmarked) :: 125 to 127 °C
C=C(Sc1ccccc1)C(NS(=O)(=O)c1ccc(C)cc1)P(=O)(OCC)OCC (centres unmarked) [Compound 16c] :: 99 to 101 °C
C=C(OCC(F)(F)F)C(NS(=O)(=O)c1ccc(C)cc1)P(=O)(c1ccccc1)c1ccccc1 (centres unmarked) :: 201 to 203 °C

Could you now consider this next compound?
GET /values?readout=melting point&item= COC(OC)(c1ccccc1)C(N)P(=O)(c1ccccc1)c1ccccc1 (centres unmarked) 113 to 115 °C
